The reported numbers originate from ChEMBL document CHEMBL6114999.

# System: Coxsackievirus B3
# PROTOCOL_DETAILS: Antiviral activity against CVB3 infected in HEp-2 cells assessed as inhibition of virus-induced cell death at 50 uM incubated for 48 hrs by MTT assay relative to control
# Assay type: functional
# PROTOCOL_CONDITIONS: Enterovirus B
ENDPOINT_LABEL: inhibition at 50 µM (%)
Answers are plain numbers, in %.

Below, 5 compounds whose answers are already recorded.
> print(dat)
                                   compound        measured.on  measurement.units  numeric.result
1  COC(=O)C(CCSC)NC(=O)C12CCC(=O)N1c1ccc(Cl)cc1C(=O)N2 (centres undefined)  Coxsackievirus B3                  %            49.9
2  CSCCNC(=O)C12CCC(=O)N1c1ccccc1C(=O)N2C (centres undefined)  Coxsackievirus B3                  %            24.4
3  CSCCNC(=O)C12CCC(=O)N1c1ccccc1C(=O)N2 (centres undefined)  Coxsackievirus B3                  %            12.3
4  COC(=O)C(Cc1c[nH]c2ccccc12)NC(=O)C12CCC(=O)N1c1ccccc1C(=O)N2C (centres undefined)  Coxsackievirus B3                  %            40.3
5  O=C1NC2(C(=O)NCCc3c[nH]c4ccccc34)CCC(=O)N2c2ccc(Cl)cc21 (centres undefined)  Coxsackievirus B3                  %            77.3

Give inhibition at 50 µM for each of the items listed below.
1. COc1cc(CNC(=O)C23CCC(=O)N2c2ccccc2C(=O)N3)ccc1O (centres undefined)
2. CSCCNC(=O)C12CCC(=O)N1c1ccc(Cl)cc1C(=O)N2 (centres undefined)
3. CN1C(=O)c2ccccc2N2C(=O)CCC12C(=O)NCCS(C)(=O)=O (centres undefined)
4. COC(=O)C(Cc1c[nH]c2ccccc12)NC(=O)C12CCC(=O)N1c1ccc(Cl)cc1C(=O)N2 (centres undefined)

Result:
1. 56.6
2. 30.1
3. 46.6
4. 45

----------
# PROTOCOL_DETAILS: Selectivity index, ratio of CC50 for cytotoxicity against HEp-2 cells to EC50 for antiviral activity against CVB3 infected in HEp-2 cells
# Assay type: toxicity, cell-based
# PROTOCOL_CONDITIONS: human, read-out: Ratio CC50/EC50
Threshold-based label: selectivity ratio under 3 gives Condition met, selectivity ratio not under 3 gives Condition not met.

See these solved cases before continuing.
> print(dat)
                                   compound        label.value
1  CS(=O)(=O)CCNC(=O)C12CCC(=O)N1c1ccccc1C(=O)N2 (stereo not given)  Condition not met
2  NC(=O)c1ncn([C@@H]2O[C@H](CO)[C@@H](O)[C@H]2O)n1 [RIBAVIRIN]  Condition not met
3  COc1cc(CNC(=O)C23CCC(=O)N2c2ccc(Cl)cc2C(=O)N3)ccc1O (stereo not given)  Condition not met

Problem: Lab note: selectivity ratio threshold 3. Does this compound come in strictly under it? O=C1NC2(C(=O)NCCc3c[nH]c4ccccc34)CCC(=O)N2c2ccc(Cl)cc21 (stereo not given)
Result: Condition not met

Problem: Lab note: selectivity ratio threshold 3. Does this compound come in strictly under it? CN1C(=O)c2ccccc2N2C(=O)CCC12C(=O)NCCc1c[nH]c2ccccc12 (stereo not given)
Result: Condition met

Problem: Lab note: selectivity ratio threshold 3. Does this compound come in strictly under it? COC(=O)C(Cc1c[nH]c2ccccc12)NC(=O)C12CCC(=O)N1c1ccc(Cl)cc1C(=O)N2 (stereo not given)
Result: Condition not met

----------
# Test system: Enterovirus
# PROTOCOL_DETAILS: Antiviral activity against EV71 infected in human RD cells assessed as inhibition of virus-induced cell death at 100 uM incubated for 48 hrs by MTT assay relative to control
# Assay type: functional, 71
# PROTOCOL_CONDITIONS: Enterovirus, 71, RD
inhibition at 100 µM vs 20%: at or above is Criterion met, below is Criterion not met.

See these solved cases before continuing.
> print(dat)
                                   compound        label.value
1  NC(=O)c1ncn([C@@H]2O[C@H](CO)[C@@H](O)[C@H]2O)n1      Criterion met
2  COc1cc(CNC(=O)C23CCC(=O)N2c2ccc(Cl)cc2C(=O)N3)ccc1O (centres undefined)      Criterion met
3  CS(=O)(=O)CCNC(=O)C12CCC(=O)N1c1ccccc1C(=O)N2 (centres undefined)  Criterion not met
4  COC(=O)C(Cc1c[nH]c2ccccc12)NC(=O)C12CCC(=O)N1c1ccc(Cl)cc1C(=O)N2 (centres undefined)      Criterion met
5  O=C1NC2(C(=O)NCCc3c[nH]c4ccccc34)CCC(=O)N2c2ccc(Cl)cc21 (centres undefined)      Criterion met

Problem: Could you please find out whether COc1cc(CNC(=O)C23CCC(=O)N2c2ccccc2C(=O)N3)ccc1O (centres undefined) has inhibition at 100 µM that meets 20% or exceeds it?
Result: Criterion met

Problem: Could you please find out whether CN1C(=O)c2ccccc2N2C(=O)CCC12C(=O)NCCc1c[nH]c2ccccc12 (centres undefined) has inhibition at 100 µM that meets 20% or exceeds it?
Result: Criterion met

Problem: Could you please find out whether CC(NC(=O)C12CCC(=O)N1c1ccc(Cl)cc1C(=O)N2)c1ccccc1 (centres undefined) has inhibition at 100 µM that meets 20% or exceeds it?
Result: Criterion met

Problem: Could you please find out whether COC(=O)C(Cc1c[nH]c2ccccc12)NC(=O)C12CCC(=O)N1c1ccccc1C(=O)N2 (centres undefined) has inhibition at 100 µM that meets 20% or exceeds it?
Result: Criterion met

Problem: Could you please find out whether COC(=O)C(CCSC)NC(=O)C12CCC(=O)N1c1ccc(Cl)cc1C(=O)N2 (centres undefined) has inhibition at 100 µM that meets 20% or exceeds it?
Result: Criterion met

Problem: Could you please find out whether CSCCNC(=O)C12CCC(=O)N1c1ccccc1C(=O)N2 (centres undefined) has inhibition at 100 µM that meets 20% or exceeds it?
Result: Criterion not met

Problem: Could you please find out whether CS(=O)(=O)CCNC(=O)C12CCC(=O)N1c1ccc(Cl)cc1C(=O)N2 (centres undefined) has inhibition at 100 µM that meets 20% or exceeds it?
Result: Criterion met

Problem: Could you please find out whether COC(=O)C(CCSC)NC(=O)C12CCC(=O)N1c1ccccc1C(=O)N2C (centres undefined) has inhibition at 100 µM that meets 20% or exceeds it?
Result: Criterion not met

Problem: Could you please find out whether CSCCNC(=O)C12CCC(=O)N1c1ccc(Cl)cc1C(=O)N2 (centres undefined) has inhibition at 100 µM that meets 20% or exceeds it?
Result: Criterion met

Problem: Could you please find out whether CSCCNC(=O)C12CCC(=O)N1c1ccccc1C(=O)N2C (centres undefined) has inhibition at 100 µM that meets 20% or exceeds it?
Result: Criterion not met

Problem: Could you please find out whether CN1C(=O)c2ccccc2N2C(=O)CCC12C(=O)NCCS(C)(=O)=O (centres undefined) has inhibition at 100 µM that meets 20% or exceeds it?
Result: Criterion met

Problem: Could you please find out whether COC(=O)C(Cc1c[nH]c2ccccc12)NC(=O)C12CCC(=O)N1c1ccccc1C(=O)N2C (centres undefined) has inhibition at 100 µM that meets 20% or exceeds it?
Result: Criterion met

Problem: Could you please find out whether COC(=O)C(CCSC)NC(=O)C12CCC(=O)N1c1ccccc1C(=O)N2 (centres undefined) has inhibition at 100 µM that meets 20% or exceeds it?
Result: Criterion not met

Problem: Could you please find out whether O=C1NC2(C(=O)NCCc3c[nH]c4ccccc34)CCC(=O)N2c2ccccc21 (centres undefined) has inhibition at 100 µM that meets 20% or exceeds it?
Result: Criterion met

----------
Field: inhibition at 100 µM. Provide a value for each of the compounds that follow.
# Tested on: Coxsackievirus B3
# PROTOCOL_DETAILS: Antiviral activity against CVB3 infected in HEp-2 cells assessed as inhibition of virus-induced cell death at 100 uM incubated for 48 hrs by MTT assay relative to control
# Type: functional
# PROTOCOL_CONDITIONS: Enterovirus B, HEp-2, 48 h
Give bare numbers, in %.

> print(dat)
                                   compound        endpoint.label  numeric.result
1  CSCCNC(=O)C12CCC(=O)N1c1ccccc1C(=O)N2 (centres undefined)  inhibition at 100 µM            26.9
2  NC(=O)c1ncn([C@@H]2O[C@H](CO)[C@@H](O)[C@H]2O)n1  inhibition at 100 µM              71
3  COC(=O)C(CCSC)NC(=O)C12CCC(=O)N1c1ccccc1C(=O)N2C (centres undefined)  inhibition at 100 µM            27.3
4  COc1cc(CNC(=O)C23CCC(=O)N2c2ccccc2C(=O)N3)ccc1O (centres undefined)  inhibition at 100 µM            82.4
5  COC(=O)C(CCSC)NC(=O)C12CCC(=O)N1c1ccccc1C(=O)N2 (centres undefined)  inhibition at 100 µM            27.9
6  O=C1NC2(C(=O)NCCc3c[nH]c4ccccc34)CCC(=O)N2c2ccccc21 (centres undefined)  inhibition at 100 µM            62.1
7  CC(NC(=O)C12CCC(=O)N1c1ccc(Cl)cc1C(=O)N2)c1ccccc1 (centres undefined)  inhibition at 100 µM            47.9
8  CSCCNC(=O)C12CCC(=O)N1c1ccccc1C(=O)N2C (centres undefined)  inhibition at 100 µM            32.1

Give inhibition at 100 µM for each of the items listed below.
1. CN1C(=O)c2ccccc2N2C(=O)CCC12C(=O)NCCS(C)(=O)=O (centres undefined)
2. COC(=O)C(CCSC)NC(=O)C12CCC(=O)N1c1ccc(Cl)cc1C(=O)N2 (centres undefined)
3. COC(=O)C(Cc1c[nH]c2ccccc12)NC(=O)C12CCC(=O)N1c1ccccc1C(=O)N2 (centres undefined)
4. COC(=O)C(Cc1c[nH]c2ccccc12)NC(=O)C12CCC(=O)N1c1ccc(Cl)cc1C(=O)N2 (centres undefined)
5. CS(=O)(=O)CCNC(=O)C12CCC(=O)N1c1ccccc1C(=O)N2 (centres undefined)
6. CSCCNC(=O)C12CCC(=O)N1c1ccc(Cl)cc1C(=O)N2 (centres undefined)

Result:
1. 55.2
2. 58.8
3. 83.1
4. 63.7
5. 11.9
6. 46.7

Give inhibition at 100 µM for each of the items listed below.
1. O=C1NC2(C(=O)NCCc3c[nH]c4ccccc34)CCC(=O)N2c2ccc(Cl)cc21 (centres undefined)
2. CN1C(=O)c2ccccc2N2C(=O)CCC12C(=O)NCCc1c[nH]c2ccccc12 (centres undefined)
3. CS(=O)(=O)CCNC(=O)C12CCC(=O)N1c1ccc(Cl)cc1C(=O)N2 (centres undefined)

Result:
1: 65.7; 2: 54.4; 3: 28.5

Give inhibition at 100 µM for each of the items listed below.
1. COC(=O)C(Cc1c[nH]c2ccccc12)NC(=O)C12CCC(=O)N1c1ccccc1C(=O)N2C (centres undefined)
2. COc1cc(CNC(=O)C23CCC(=O)N2c2ccc(Cl)cc2C(=O)N3)ccc1O (centres undefined)

Result:
1: 63.7; 2: 87.3
